The values you see were collected from paper PMC8809517.

# target.or.test.system: T1, GFP-9S library array, motif 4 ND D124M (synthetic construct, D124M)
# T1 chain: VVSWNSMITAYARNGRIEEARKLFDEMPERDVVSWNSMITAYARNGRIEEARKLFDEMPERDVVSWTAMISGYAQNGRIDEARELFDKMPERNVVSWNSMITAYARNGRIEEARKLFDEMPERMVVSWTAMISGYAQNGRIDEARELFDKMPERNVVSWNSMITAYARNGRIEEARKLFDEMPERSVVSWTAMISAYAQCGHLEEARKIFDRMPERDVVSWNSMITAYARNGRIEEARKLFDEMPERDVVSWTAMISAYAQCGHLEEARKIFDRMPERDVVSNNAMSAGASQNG
# method: high-throughput RNA pulldown from lysate on Ni-NTA beads; HRP: 50 mM Tris pH 8, 150 mM NaCl, 1 mM beta-mercaptoethanol, 50 ug/ml BSA, 3 ug/ml yeast RNA, 0.5% heparin; ITC and FP: Tris pH 8, 200 mM KCl, 5% glycerol; MST: 50 mM Tris pH 8, 200 mM NaCl, 1 mM DTT, BSA, heparin, 0.05% Tween 20
# experimental.context: tags: N-terminal His-eGFP; label: 5' Cy5
Kindly supply the reported pKd values for the records listed here.
Convention used: pKd is expressed as -log10 of the molar concentration.

In one line, give reported pKd of the entry AUUAGACGUGA (ssRNA) [Cy5-rpoA-G] .
6.86

In one line, give reported pKd of the entry AUUACACGUGA (ssRNA) [Cy5-rpoA] .
7.15
